Recorded values, source ChEMBL document CHEMBL3745688.

Target: UniProt:P12527
Sequence (P12527 whole entry): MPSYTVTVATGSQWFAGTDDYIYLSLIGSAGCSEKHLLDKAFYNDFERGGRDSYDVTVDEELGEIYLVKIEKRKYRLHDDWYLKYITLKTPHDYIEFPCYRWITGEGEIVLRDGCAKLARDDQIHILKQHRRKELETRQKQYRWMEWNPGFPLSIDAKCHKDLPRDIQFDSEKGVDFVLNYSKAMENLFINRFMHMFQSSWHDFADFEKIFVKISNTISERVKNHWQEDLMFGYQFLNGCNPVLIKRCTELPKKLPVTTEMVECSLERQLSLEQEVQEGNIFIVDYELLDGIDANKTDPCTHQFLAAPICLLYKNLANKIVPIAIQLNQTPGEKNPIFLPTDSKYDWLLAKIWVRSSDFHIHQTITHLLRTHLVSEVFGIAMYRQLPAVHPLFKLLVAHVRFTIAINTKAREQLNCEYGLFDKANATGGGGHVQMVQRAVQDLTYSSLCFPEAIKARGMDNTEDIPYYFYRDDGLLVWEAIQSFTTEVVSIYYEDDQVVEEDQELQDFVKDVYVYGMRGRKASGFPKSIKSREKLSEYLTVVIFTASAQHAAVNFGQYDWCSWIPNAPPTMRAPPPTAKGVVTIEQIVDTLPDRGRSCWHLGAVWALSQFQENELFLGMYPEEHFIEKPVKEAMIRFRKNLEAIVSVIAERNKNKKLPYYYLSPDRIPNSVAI
Experiment: Inhibition of 5-LOX in Sprague-Dawley rat leukocytes assessed as A23187 stimulated LTB4 production pretreated for 30 mins followed by addition of A23187 for 30 mins by EIA
Field: IC50. Provide a value for each of the molecules that follow.
Numbers only, in nM.

smiles=NS(=O)(=O)c1ccc(-c2nc(SCCOC(=O)/C=C/c3ccc(O)c(O)c3)nn2-c2ccccc2)cc1 numeric_readout=800

For every listed record, write down its IC50.
1. NS(=O)(=O)c1ccc(-c2nc(SCCCOC(=O)/C=C/c3ccc(O)c(O)c3)nn2-c2ccccc2)cc1
2. CC(=O)Oc1ccc(/C=C/C(=O)OCCCSc2nc(-c3ccc(S(N)(=O)=O)cc3)n(-c3ccc(F)cc3)n2)cc1OC(C)=O
3. CC(=O)Oc1ccc(/C=C/C(=O)OCCCSc2nc(-c3ccc(S(C)(=O)=O)cc3)n(-c3ccc(Br)cc3)n2)cc1OC(C)=O
4. COc1cc(/C=C/C(=O)OCCSc2nc(-c3ccc(S(C)(=O)=O)cc3)n(-c3ccc(Br)cc3)n2)ccc1OC(C)=O
5. CS(=O)(=O)c1ccc(-c2nc(SCCCNC(=O)/C=C/c3ccc(O)c(O)c3)nn2-c2ccc(F)cc2)cc1
6. CC(=O)Oc1ccc(/C=C/C(=O)OCCSc2nc(-c3ccc(S(N)(=O)=O)cc3)n(-c3ccc(Br)cc3)n2)cc1OC(C)=O

[770, 1030, 990, 940, 710, 1050]

====

Target: UniProt P12527
Assay: Inhibition of 5-LOX in Sprague-Dawley rat leukocytes assessed as A23187 stimulated LTB4 production pretreated for 30 mins followed by addition of A23187 for 30 mins by EIA
Field: IC50. Provide a value for each of the compounds that follow.
Numbers only, in nM.

Take a look at these entries with their results.
smiles=CS(=O)(=O)c1ccc(-c2nc(SCCOC(=O)/C=C/c3ccc(O)c(O)c3)nn2-c2ccccc2)cc1 measurement_type=IC50 numeric_readout=850
smiles=CC(=O)Oc1ccc(/C=C/C(=O)NCCCSc2nc(-c3ccc(S(N)(=O)=O)cc3)n(-c3ccccc3)n2)cc1OC(C)=O measurement_type=IC50 numeric_readout=970
smiles=NS(=O)(=O)c1ccc(-c2nc(SCCOC(=O)/C=C/c3ccccc3)nn2-c2ccc(Br)cc2)cc1 measurement_type=IC50 numeric_readout=1280
smiles=CC(=O)Oc1ccc(/C=C/C(=O)OCCSc2nc(-c3ccc(S(C)(=O)=O)cc3)n(-c3ccccc3)n2)cc1OC(C)=O measurement_type=IC50 numeric_readout=1210
smiles=CC(=O)Oc1ccc(/C=C/C(=O)NCCSc2nc(-c3ccc(S(C)(=O)=O)cc3)n(-c3ccc(F)cc3)n2)cc1OC(C)=O measurement_type=IC50 numeric_readout=950
smiles=COc1cc(/C=C/C(=O)OCCSc2nc(-c3ccc(S(C)(=O)=O)cc3)n(-c3ccc(F)cc3)n2)ccc1OC(C)=O measurement_type=IC50 numeric_readout=920
smiles=CC(=O)Oc1ccc(/C=C/C(=O)OCCSc2nc(-c3ccc(S(N)(=O)=O)cc3)n(-c3ccc(F)cc3)n2)cc1OC(C)=O measurement_type=IC50 numeric_readout=1060
smiles=CC(=O)Oc1ccc(/C=C/C(=O)OCCCSc2nc(-c3ccc(S(N)(=O)=O)cc3)n(-c3ccccc3)n2)cc1OC(C)=O measurement_type=IC50 numeric_readout=1070

For every listed record, write down its IC50.
1. CC(=O)Oc1ccc(/C=C/C(=O)OCCSc2nc(-c3ccc(S(N)(=O)=O)cc3)n(-c3ccccc3)n2)cc1OC(C)=O
2. CS(=O)(=O)c1ccc(-c2nc(SCCCOC(=O)/C=C/c3ccc(O)c(O)c3)nn2-c2ccc(Br)cc2)cc1
3. COc1cc(/C=C/C(=O)OCCSc2nc(-c3ccc(S(C)(=O)=O)cc3)n(-c3ccccc3)n2)ccc1O
4. CC(=O)Oc1ccc(/C=C/C(=O)NCCSc2nc(-c3ccc(S(N)(=O)=O)cc3)n(-c3ccc(Br)cc3)n2)cc1OC(C)=O

1. 1110
2. 790
3. 840
4. 990

For every listed record, write down its IC50.
1. COc1cc(/C=C/C(=O)OCCSc2nc(-c3ccc(S(C)(=O)=O)cc3)n(-c3ccccc3)n2)ccc1OC(C)=O
2. CS(=O)(=O)c1ccc(-c2nc(SCCCOC(=O)/C=C/c3ccc(O)c(O)c3)nn2-c2ccc(F)cc2)cc1
3. COc1cc(/C=C/C(=O)OCCSc2nc(-c3ccc(S(C)(=O)=O)cc3)n(-c3ccc(C(F)(F)F)cc3)n2)ccc1OC(C)=O

[960, 710, 920]
